target: ERα (Homo sapiens); construct: the ERα LBD was amplified by polymerase chain reaction and subcloned into the pGEX-6P-1 vector; made in house; host or cells: Escherichia coli BL21α; assay: Competitive binding assay using [3H]E2 against GST-fused ERα LBD; conditions: [3H]17β-oestradiol radioligand (5 nM), GST-ERα-LBD, mean ± SE; read-out: Binding affinity (IC50)
Sequence (P03372 311-547 limits assumed): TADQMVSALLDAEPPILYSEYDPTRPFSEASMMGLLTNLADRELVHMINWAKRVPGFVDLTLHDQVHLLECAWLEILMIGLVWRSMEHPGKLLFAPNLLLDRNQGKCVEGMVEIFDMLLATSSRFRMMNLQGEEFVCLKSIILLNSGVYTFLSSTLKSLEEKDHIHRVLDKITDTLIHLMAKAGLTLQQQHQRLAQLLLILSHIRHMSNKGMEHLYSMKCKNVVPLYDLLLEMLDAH
compounds and their reported log10(IC50)
Form field - Quantity: IC50; Unit: nM; Scale: log10

Below, each entry is followed by its recorded log10(IC50) result.
compound="Cc1cc(C2(c3ccc(O)c(C)c3)CCCCC2)ccc1O [compound 5]" assayed_target="ERα (Homo sapiens)" value_measured=1.59
compound="CCCCC(CC)C(c1ccc(O)cc1)c1ccc(O)cc1 (centres unmarked) [compound 4, 4,4-(2-ethylhexylidene)bisphenol]" assayed_target="ERα (Homo sapiens)" value_measured=1.27
compound="CCC(C)(c1ccc(O)cc1)c1ccc(O)cc1 [compound 12, bisphenol B]" assayed_target="ERα (Homo sapiens)" value_measured=2.29
compound="Oc1ccc(C2(c3ccc(O)cc3)c3ccccc3-c3ccccc32)cc1 [compound 22, 9,9-bis(4-hydroxyphenyl)fluorine]" assayed_target="ERα (Homo sapiens)" value_measured=3.35
compound="Nc1cc(C(c2ccc(O)c(N)c2)(C(F)(F)F)C(F)(F)F)ccc1O [compound 15]" assayed_target="ERα (Homo sapiens)" value_measured=2.52

Hello, please tell me recorded log10(IC50) for this one: CC(C)(c1ccc(O)cc1)c1ccc(C(C)(c2ccc(O)cc2)c2ccc(O)cc2)cc1 [compound 10] 1.79

Hello, please tell me recorded log10(IC50) for this one: Nc1ccc(Oc2ccc(C(c3ccc(Oc4ccc(N)cc4)cc3)(C(F)(F)F)C(F)(F)F)cc2)cc1 [compound 19] 3.01

Hello, please tell me recorded log10(IC50) for this one: CC(C)(c1ccc(O)cc1)c1ccc(C(C)(C)c2ccc(O)cc2)cc1 [compound 11, bisphenol P] 2.25
